# Assay comment: Metabolic stability in simulated gastric fluid assessed as compound remaining at pH 1.2 after 20 mins by HPLC analysis
# Assay type: ADME
# Measurement conditions: read-out: Stability
Measure: remaining at 20 min (%)
Numbers only; they are read as %.

*Q* Indicate the recorded remaining at 20 min value for this compound: CC(=O)Oc1ccccc1C(=O)OC(C)O[N+](=O)[O-] (stereo unspecified)
*A* 14

----------
# Assay comment: Stability of the compound assessed as compound remaining at 50 degC after 1 month
# Format: physicochemical
# Measurement conditions: read-out: Stability
Measure: remaining at 730.5 h (%)
Write it as a number; the unit % goes unstated.

*Q* Name the recorded remaining at 730.5 h of the item CC(=O)Oc1ccccc1C(=O)OC(C)O[N+](=O)[O-] (stereo unspecified) in your answer.
*A* 88.3

----------
# Assay comment: Stability of the compound assessed as compound remaining at RT after 3 days
# Format: physicochemical
# Measurement conditions: read-out: Stability
Measure: remaining at 72 h (%)
Supply the numeric figure in %, leaving out any unit text.

*Q* Give a short answer stating reported remaining at 72 h for CC(=O)Oc1ccccc1C(=O)OC(C)O[N+](=O)[O-] (stereo unspecified) .
*A* 98.9

----------
# Assay comment: Metabolic stability in simulated intestinal fluid assessed as compound remaining at pH 6.8 after 10 mins by HPLC analysis
# Assay type: ADME
# Measurement conditions: read-out: Stability
Measure: remaining at 10 min (%)
Please reply with the bare figure in % and do not write the unit itself.

*Q* Supply measured remaining at 10 min of CC(=O)Oc1ccccc1C(=O)OC(C)O[N+](=O)[O-] (stereo unspecified) in your reply.
*A* 52

----------
# Assay comment: Stability of the compound assessed as compound remaining at 50 degC after 25 days
# Type: physicochemical
# Measurement conditions: read-out: Drug metabolism
Measure: remaining at 600 h (%)
Give the quantity in %, number only.

*Q* Could you please provide reported remaining at 600 h for COc1ccc2cc([C@H](C)C(=O)OC(C)O[N+](=O)[O-])ccc2c1 (stereo partly specified) ? Thanks!
*A* 99

----------
# Assay comment: Metabolic stability in simulated gastric fluid assessed as compound remaining at pH 1.2 after 5 mins by HPLC analysis
# Assay type: ADME
# Measurement conditions: read-out: Stability
# key: entry, value: remaining at 5 min

Past entries and their recorded results:
Molecule: CCCC(OC(=O)[C@@H](C)c1ccc2cc(OC)ccc2c1)O[N+](=O)[O-] (stereo not given in full)
Measure: remaining at 5 min
Val: 96%

Molecule: COc1ccc2cc([C@H](C)C(=O)OC(C)O[N+](=O)[O-])ccc2c1 (stereo not given in full)
Measure: remaining at 5 min
Val: 85%

*Q* Provide one value: measured remaining at 5 min of CCCCC(OC(=O)[C@@H](C)c1ccc2cc(OC)ccc2c1)O[N+](=O)[O-] (stereo not given in full)
*A* 98%

*Q* Return the recorded remaining at 5 min value; entry: CCC(OC(=O)[C@@H](C)c1ccc2cc(OC)ccc2c1)O[N+](=O)[O-] (stereo not given in full)
*A* 94%

*Q* Return remaining at 5 min for the following molecule: CC(=O)Oc1ccccc1C(=O)OC(C)O[N+](=O)[O-] (stereo not given)
*A* 65%

----------
# Assay comment: Stability of the compound assessed as compound remaining at RT after 18 days
# Type: physicochemical
# Measurement conditions: read-out: Stability
Measure: remaining at 432 h (%)
Lab book: enter the figure in %, no units written.

*Q* Please look at this compound and report its remaining at 432 h: CC(=O)Oc1ccccc1C(=O)OC(C)O[N+](=O)[O-] (stereo unspecified)
*A* 99

----------
# Assay comment: Metabolic stability in simulated gastric fluid assessed as compound remaining at pH 1.2 after 15 mins by HPLC analysis
# Format: ADME
# Measurement conditions: read-out: Stability
Measure: remaining at 0.25 h (%)
All answers are understood in %, so give the number only.

Some solved cases for reference:
Compound: CCCC(OC(=O)[C@@H](C)c1ccc2cc(OC)ccc2c1)O[N+](=O)[O-] (stereo partly drawn)
remaining at 0.25 h (%): 83
//
Compound: COc1ccc2cc([C@H](C)C(=O)OC(C)O[N+](=O)[O-])ccc2c1 (stereo partly drawn)
remaining at 0.25 h (%): 65

*Q* Identify the reported remaining at 0.25 h for the following entry. CCCCC(OC(=O)[C@@H](C)c1ccc2cc(OC)ccc2c1)O[N+](=O)[O-] (stereo partly drawn)
*A* 87
